# Target or system: Neu5Ac(a2-3)Gal(b1-4)GlcNAc(b1-3)Gal
# Experimental protocol: glycan array binding signal (z-score within array); higher = stronger binding
# Details: glycan notation: IUPAC condensed, linker removed
The entries come from a sample that favours the strongest signals as a whole.
Recorded glycan array binding signal (z-score), one value per entry.
Reported metric: glycan array binding signal (z-score)

INSERT INTO assay_data (binder, value_observed) VALUES
  ('OrysaEULS2 (Oryza sativa) (protein) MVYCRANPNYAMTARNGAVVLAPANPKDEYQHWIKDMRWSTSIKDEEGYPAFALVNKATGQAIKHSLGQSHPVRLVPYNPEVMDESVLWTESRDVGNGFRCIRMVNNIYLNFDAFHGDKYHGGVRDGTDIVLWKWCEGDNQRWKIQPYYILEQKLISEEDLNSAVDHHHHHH', -0.196),
  ('MSMEG3662-2a (Mycobacterium smegmatis), A0QYH7_MYCS2 (protein) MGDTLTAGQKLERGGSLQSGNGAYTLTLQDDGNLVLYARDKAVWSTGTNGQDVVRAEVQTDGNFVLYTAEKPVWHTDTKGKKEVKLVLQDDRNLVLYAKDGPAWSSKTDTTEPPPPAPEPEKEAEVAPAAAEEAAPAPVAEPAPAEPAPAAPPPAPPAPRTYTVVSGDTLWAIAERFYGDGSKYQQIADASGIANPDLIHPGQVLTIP', -0.15),
  ('MAL-II (Maackia amurensis), P93248 (protein) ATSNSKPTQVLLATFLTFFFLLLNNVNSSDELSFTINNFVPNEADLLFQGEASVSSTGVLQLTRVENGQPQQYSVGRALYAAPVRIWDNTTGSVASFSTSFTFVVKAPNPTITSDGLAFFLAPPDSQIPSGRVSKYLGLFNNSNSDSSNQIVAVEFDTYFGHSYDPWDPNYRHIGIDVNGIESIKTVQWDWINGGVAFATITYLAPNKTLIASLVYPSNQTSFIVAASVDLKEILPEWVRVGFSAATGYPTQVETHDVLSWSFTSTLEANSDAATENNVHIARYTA', -0.196);
